Values compiled from ChEMBL document CHEMBL1201862.

- Test system: SR
- test-description: NCI tumour cell line growth inhibition, 48 h
Structures can show the parent of a compound that is named as a salt. Calls of active or inactive are those of the source. No stated cut-off is given here; in the data, active = GI50 up to about 1.1 µM and inactive = higher.
Outcome codes: active, inactive

{"compound": "C=C(C)C1CC2C(C)=C(OC(C)=O)C1n1c(=O)c3cc4ccccc4cc3c(=O)n12 (stereo not drawn)", "category": "inactive"}
{"compound": "COc1ccc(Nc2c(C#N)c3n(c4ccccc24)c2ccccc2[n+]3C)cc1OC", "category": "inactive"}
{"compound": "O=C1O[C@H]2[C@H](OC(=O)c3cc(O)c(O)c(O)c3)[C@@H](OC(=O)c3cc(O)c(O)c4c3[C@@H]3C1=CC(=O)C(O)(O)C3(O)O4)[C@H](OC(=O)c1cc(O)c(O)c(O)c1)O[C@@H]2COC(=O)c1cc(O)c(O)c(O)c1 (stereo partly drawn)", "category": "inactive"}
{"compound": "CC(Oc1ccc(Oc2cnc3ccc(Cl)cc3n2)cc1)C(=O)O (stereo not drawn)", "category": "inactive"}
{"compound": "COc1ccc(/C=N/n2cnc3c(c2=O)SC(=C(C#N)C#N)N3c2ccccc2)cc1", "category": "inactive"}
{"compound": "C=C1C2C[C@@H]3OC4CC5O[C@]6(CC5OC4C(C)C3OC(=O)CC3CC[C@@H]4OC5C7OC8C[C@](CCC9CC(=C)[C@H](CCC(C[C@H]1C)O2)O9)(OC7C4O3)O[C@@H]85)C[C@@H]1O[C@@]2(CC(C)[C@@H]3OC(CC(=O)CCO)C(O)C[C@@H]3O2)CC(C)[C@@H]1O6 (stereo partly drawn)", "category": "active"}
{"compound": "CCCCCCCCCCCCC(CC)CCCCC(=O)O (stereo not drawn)", "category": "inactive"}
{"compound": "Cc1ccc(C(=O)/C=C2\\Nc3cccnc3NC2=O)cc1", "category": "inactive"}
{"compound": "CCOC(=O)C1(Cc2ccc3c(c2)CCC3)Cc2cc3c(cc2C1=O)CCC3 (stereo not drawn)", "category": "inactive"}
{"compound": "CN1C(=O)C(O)C[C@@H]1c1ccccc1 (stereo partly drawn)", "category": "inactive"}
{"compound": "CN(C)CCNC(=O)c1ccc(Cl)c2cc3ccccc3nc12", "category": "active"}
{"compound": "NCCSSCCN [CYSTAMINE HYDROCHLORIDE]", "category": "inactive"}
{"compound": "COc1ccc(NC(=O)c2cc(NC(=O)/C=C/c3ccccc3)c(OC)c(OC)c2)cc1", "category": "inactive"}
{"compound": "Cc1c(O)c(=O)ccn1CCc1ccc(O)cc1", "category": "inactive"}
{"compound": "O=C(CCCn1ccnc1[N+](=O)[O-])NCCn1ccnc1[N+](=O)[O-]", "category": "inactive"}
{"compound": "Cc1cc(=O)oc2cc3c(cc12)Oc1ccccc1O3", "category": "inactive"}
{"compound": "O=S1(=O)Cc2ccc3c4c2-c2c(ccc5ccc(c-4c25)CS(=O)(=O)C3)C1", "category": "inactive"}
{"compound": "CCOC(=O)c1nc2ccc(C(F)(F)F)cc2nc1NCc1ccc(F)cc1", "category": "inactive"}
